# System: Hep3B
# Test protocol: High-throughput calcein AM cytotoxicity assay, Hep3B
# Type: cell-based, human
# Test conditions: Hep 3B cells; read-out: IC50
# Description: Standard errors are depicted with error bars.

Compound | IC50
CON(C1CCC2(C)C(CCC3C2CCC2(C)C(C4=CC(=O)OC4)CCC32O)C1)C1OC(CO)C(OC2OC(CO)C(O)C(O)C2O)C(O)C1O (stereo not drawn) [36α, lactoside] | > 25 µM
CON(C1CCC2(C)C(CCC3C2CCC2(C)C(C4=CC(=O)OC4)CCC32O)C1)C1OC(CO)C(O)C(O)C1O [39α, L-taloside] | > 25 µM
CON(C1CCC2(C)C(CCC3C2CCC2(C)C(C4=CC(=O)OC4)CCC32O)C1)C1OC(CO)C(O)C(O)C1O [42α, L-glucoside] | > 25 µM

====

# System: MCF7
# Test protocol: High-throughput calcein AM cytotoxicity assay, MCF7
# Format: cell-based, human
# Test conditions: MCF7 cells; read-out: IC50, MCF7
Each entry below carries its reported IC50.

Molecule | Comparison sign | IC50 [µM]
CON([C@H]1CC[C@@]2(C)[C@H](CC[C@@H]3[C@@H]2CC[C@]2(C)[C@@H](C4=CC(=O)OC4)CC[C@]32O)C1)[C@H]1O[C@@H](CO)[C@@H](O)[C@@H](O)[C@@H]1O [21β, L-galactoside] | = | 1.8
CON(C1CCC2(C)C(CCC3C2CCC2(C)C(C4=CC(=O)OC4)CCC32O)C1)C1OC(CO)C(OC2OC(CO)C(O)C(O)C2O)C(O)C1O (stereo not drawn) [37β, maltoside] | > | 25
CON([C@H]1CC[C@@]2(C)[C@H](CC[C@@H]3[C@@H]2CC[C@]2(C)[C@@H](C4=CC(=O)OC4)CC[C@]32O)C1)[C@@H]1O[C@H](CF)[C@@H](O)[C@H](O)[C@H]1O [13β, 6-deoxy-6-fluoro-D-glucoside] | = | 6.2
CON([C@H]1CC[C@@]2(C)[C@H](CC[C@@H]3[C@@H]2CC[C@]2(C)[C@@H](C4=CC(=O)OC4)CC[C@]32O)C1)[C@@H]1O[C@H](CO)[C@@H](O)C[C@H]1O [10β, 3-deoxy-D-glucoside] | = | 0.46
CON([C@H]1CC[C@@]2(C)[C@H](CC[C@@H]3[C@@H]2CC[C@]2(C)[C@@H](C4=CC(=O)OC4)CC[C@]32O)C1)[C@H]1O[C@@H](CO)[C@@H](O)[C@H](O)[C@H]1O [28β, L-idoside] | = | 2.6
CON(C1CCC2(C)C(CCC3C2CCC2(C)C(C4=CC(=O)OC4)CCC32O)C1)C1OCC(O)C(O)C1O [5α, L-riboside] | > | 25
CON(C1CCC2(C)C(CCC3C2CCC2(C)C(C4=CC(=O)OC4)CCC32O)C1)C1OC(CO)C(O)C(O)C1O [39β, L-taloside] | = | 1.8
CON([C@H]1CC[C@@]2(C)[C@H](CC[C@@H]3[C@@H]2CC[C@]2(C)[C@@H](C4=CC(=O)OC4)CC[C@]32O)C1)[C@H]1OC[C@H](O)[C@H](O)[C@@H]1O [5β, L-riboside] | = | 0.19
CON(C1CCC2(C)C(CCC3C2CCC2(C)C(C4=CC(=O)OC4)CCC32O)C1)C1OCC(O)C(O)C1O [24α, D-xyloside] | > | 25
CON([C@H]1CC[C@@]2(C)[C@H](CC[C@@H]3[C@@H]2CC[C@]2(C)[C@@H](C4=CC(=O)OC4)CC[C@]32O)C1)[C@H]1O[C@@H](C)[C@@H](O)[C@@H](O)[C@@H]1O [7β, L-fucoside] | = | 1.3
CON([C@H]1CC[C@@]2(C)[C@H](CC[C@@H]3[C@@H]2CC[C@]2(C)[C@@H](C4=CC(=O)OC4)CC[C@]32O)C1)[C@@H]1O[C@H](CO)[C@H](O)[C@@H](O)[C@@H]1O [29β, D-idoside] | = | 0.44
CON([C@H]1CC[C@@]2(C)[C@H](CC[C@@H]3[C@@H]2CC[C@]2(C)[C@@H](C4=CC(=O)OC4)CC[C@]32O)C1)[C@H]1O[C@@H](CO)[C@H](O)[C@H](O)[C@@H]1O [17β, L-alloside] | = | 0.9
CON(C1CCC2(C)C(CCC3C2CCC2(C)C(C4=CC(=O)OC4)CCC32O)C1)C1OCC(O)C(O)C1O [14α, L-lyxoside] | > | 25
CON(C1CCC2(C)C(CCC3C2CCC2(C)C(C4=CC(=O)OC4)CCC32O)C1)C1OC(C)C(O)C(O)C1O [11β, 6-deoxy-D-glucoside] | = | 1.9
CON(C1CCC2(C)C(CCC3C2CCC2(C)C(C4=CC(=O)OC4)CCC32O)C1)C1OC(CO)C(O)C(O)C1O [28α, L-idoside] | > | 25
CON([C@H]1CC[C@@]2(C)[C@H](CC[C@@H]3[C@@H]2CC[C@]2(C)[C@@H](C4=CC(=O)OC4)CC[C@]32O)C1)[C@H]1O[C@@H](CO)[C@H](O)[C@@H](O)[C@H]1O [26β, L-mannoside] | = | 3
CON(C1CCC2(C)C(CCC3C2CCC2(C)C(C4=CC(=O)OC4)CCC32O)C1)C1OCC(O)C(O)C1O [15α, D-lyxoside] | > | 25
CON(C1CCC2(C)C(CCC3C2CCC2(C)C(C4=CC(=O)OC4)CCC32O)C1)C1OC(C)C(O)C(O)C1O [7α, L-fucoside] | > | 25
CON([C@H]1CC[C@@]2(C)[C@H](CC[C@@H]3[C@@H]2CC[C@]2(C)[C@@H](C4=CC(=O)OC4)CC[C@]32O)C1)[C@@H]1OC[C@@H](O)[C@@H](O)[C@H]1O [6β, D-riboside] | = | 3
CON(C1CCC2(C)C(CCC3C2CCC2(C)C(C4=CC(=O)OC4)CCC32O)C1)C1OC(COC2OC(CO)C(O)C(O)C2O)C(O)C(O)C1O (stereo not drawn) [35β, melibioside] | > | 25
C[C@]12CC[C@H](O[C@@H]3O[C@H](CO)[C@@H](O)[C@H](O)[C@H]3O)C[C@H]1CC[C@@H]1[C@@H]2CC[C@]2(C)[C@@H](C3=CC(=O)OC3)CC[C@]12O [43β, O-D-glucoside] | = | 0.7
